system: PLK1; settings: concentration: 1 μM, replicates: in singlicate; n = 1;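 further: KINOMEscan kinase panel screen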
VALUE TYPE: %Inh

Some molecules with recorded %Inh:
| MOLECULE | REPORTED RESULT |
| --- | --- |
| COc1cc(Nc2nccc(N3CCC(NC(=O)C(C)c4ccc(Cl)cc4)C3)n2)cc(OC)c1OC (centres unmarked) | 0% |
| O=C1NC(=O)C(c2ccccc2)=C1Nc1cccc(O)c1 | 0% |
| Cc1cccc(-c2nc(Nc3ccc4c(cnn4C)c3)c3ccccc3n2)n1 | 7% |
| O=C(NCc1cccs1)c1cc(C(=O)c2c(Cl)cccc2Cl)c[nH]1 | 0% |

Moving on to another molecule below.
Entry CCc1ccc(-c2ccc3c(c2)-c2nn(C)cc2S(=O)(=O)N3C)cc1 ; assay system PLK1; %Inh recorded at 8%

====

tested on: MAP4K2; details: concentration: 1 μM, replicates: in singlicate; n = 1
VALUE TYPE: %Inh

Recorded %Inh (compound FC(F)(F)c1ccc(-c2ncn(CCCN3CCOCC3)c2-c2ccncc2)cc1 [SB-217780] ): 0%

Recorded %Inh (compound COc1cc2nccc(Nc3ccc(OCc4ccc(NC(C)=O)cc4)cc3)c2cc1OC.Cl [GW440135] ): 1%

Recorded %Inh (compound COc1cc(Nc2nccc(N3CCC(NC(=O)C4COc5ccccc5O4)C3)n2)cc(OC)c1OC (stereo not drawn) [GSK1379761] ): 0%

====

test system: LCK; details: concentration: 1 μM, replicates: in singlicate; n = 1
VALUE TYPE: %Inh (%)
Express it in %; write the number only.

Some compounds with recorded %Inh:
| STRUCTURE SMILES | %Inh, % |
| --- | --- |
| CCCNC(=O)Nc1ccc(Oc2ncnc3ccn(C)c23)cc1 | 0 |
| CCc1nc(-c2cccc(C)c2)c(-c2ccncc2)s1 | 24 |
| Fc1cccc(CSc2nnc(-c3ccc4c(c3)CCO4)o2)c1 | 0 |
| Cc1cccc(-c2cc(-c3c[nH]nc3-c3ccccn3)ccn2)c1 | 78 |
| O=C(NCCNc1ccnc(Nc2ccc(F)cc2)n1)Nc1ccc2c(c1)OCO2 | 0 |
| CCn1c(-c2nonc2N)nc2ccccc21 | 12 |

Recorded %Inh (compound Cc1ccc(-c2ccc3c(ccc4sc5c(c43)NC[C@@H](C)N=C5N(C)C)n2)cn1 ): 0

Recorded %Inh (compound COc1cccc(C2=C(N(C)c3ccccc3)C(=O)NC2=O)c1 ): 16

====

test system: TTK; conditions: concentration: 1 μM, replicates: in singlicate; n = 1
Below, each of the compounds is paired with its reported %Inh value.
Express it in %; write the number only.

| COMPOUND | MEASURED TARGET | UNIT LABEL | REPORTED RESULT |
| --- | --- | --- | --- |
| CN(C)c1cc(-c2ccc3c(N)n[nH]c3c2)nc(N)n1 [GSK2219329] | TTK | % | 0 |

Moving on to another compound below.
Entry Cc1cc(Nc2nc(-c3cccc(C)n3)nc3ccccc23)ccn1 [GW872411] ; assay system TTK; %Inh recorded at 0

====

tested on: ABL2; settings: concentration: 1 μM, replicates: in singlicate; n = 1
# strict inequality: %Inh < 1% yields criterion met, everything else yields criterion not met

Here's an entry: O=C(NCc1cccs1)c1cc(C(=O)c2c(Cl)cccc2Cl)c[nH]1 [GW823670] . Is its %Inh below 1%?
criterion met

Here's an entry: COc1cc2ncn(-c3cc(OCc4ccc(S(C)(=O)=O)cc4)c(C(N)=O)s3)c2cc1OC [GW869979] . Is its %Inh below 1%?
criterion not met

Here's an entry: O=C(Nc1ccc2c(c1)OCO2)NC1CCN(c2ccnc(NCc3ccc(F)cc3)n2)CC1 [GSK1379859] . Is its %Inh below 1%?
criterion met

Here's an entry: CCCNC(=O)Nc1ccc(Oc2ncnc3ccn(C)c23)cc1 . Is its %Inh below 1%?
criterion not met

Here's an entry: FC(F)(F)c1ccc(-c2ncn(CCCN3CCOCC3)c2-c2ccncc2)cc1 [SB-217780] . Is its %Inh below 1%?
criterion not met

Here's an entry: Nc1nc(-c2ccccc2F)c(-c2ccnc3ccccc23)s1 [GW560459] . Is its %Inh below 1%?
criterion not met

Here's an entry: CCn1c(-c2nonc2N)nc2ccccc21 [SB-693162/GW549034] . Is its %Inh below 1%?
criterion met

Here's an entry: Nc1n[nH]c2ncc(-c3ccccc3)cc12 [SB-517081] . Is its %Inh below 1%?
criterion not met

Here's an entry: CCS(=O)c1ccc(-c2coc3ccc(-c4nnc(C)o4)cc23)cc1 (stereo not shown) . Is its %Inh below 1%?
criterion met

Here's an entry: O=C(Nc1n[nH]c2nc(-c3ccccc3)c(Br)cc12)C1CC1 [SB-708998] . Is its %Inh below 1%?
criterion not met
